# log10(GI50) per record follows
Test description: Growth inhibition of human NCI60 cells
Assay type: functional
Run parameters: Homo sapiens, NCI60
For clarity, the numbers are log10 values of GI50 expressed in nM.

Ask | Look up log10(GI50): C=C1[C@@H](O)[C@@]2(O)OC[C@@]34[C@H]1[C@@H](OC(=O)C/C=C(\C)CCCCC)C(=O)O[C@@H]3C[C@H]1C(C)=CC(=O)[C@@H](O)[C@]1(C)[C@@H]24
Reply | 0.18

###

Test description: Growth inhibition of human NCI60 cells
Assay type: functional
Run parameters: Homo sapiens, NCI60
# GI50 per record follows
The reply should contain only the number, in nM.

INSERT INTO results (molecule, readout_type, readout_number) VALUES
  ('COC(=O)[C@]12OC[C@]34[C@H]([C@@H](O)[C@@H]1O)[C@@]1(C)CC(=O)C(O)=C(C)[C@@H]1C[C@H]3OC(=O)[C@H](OC(=O)C=C(C)C)[C@@H]24', 'GI50', 260),
  ('C=C1[C@@H](O)[C@@]2(O)OC[C@@]34[C@H]1[C@@H](OC(=O)C/C=C/CCCCCCCC)C(=O)O[C@@H]3C[C@H]1C(C)=CC(=O)[C@@H](O)[C@]1(C)[C@@H]24', 'GI50', 24),
  ('COC(=O)[C@]12OC[C@]34[C@H]([C@@H](O)[C@@H]1O)[C@@]1(C)[C@H](O)C(=O)C=C(C)[C@@H]1C[C@H]3OC(=O)[C@H](OC(=O)CC(C)C)[C@@H]24', 'GI50', 17),
  ('C/C=C(\C)C(=O)O[C@@H]1[C@H]2C(C)=CC(=O)[C@@H](O)[C@]2(C)[C@H]2[C@@]3(O)OC[C@]24[C@H]([C@@H](C)[C@H]3O)[C@@H](OC(C)=O)C(=O)O[C@H]14', 'GI50', 40),
  ('COC(=O)[C@@]12OC[C@]34[C@H]([C@@H](O)[C@@H]1O)[C@@]1(C)[C@H](O)C(=O)C=C(C)[C@@H]1C[C@H]3OC(=O)[C@H](OC(C)=O)[C@@H]24', 'GI50', 100);

Ask | Look up GI50: CC1=CC(=O)[C@H](O)[C@@]2(C)[C@@H]1C[C@H]1OC(=O)[C@@H](OC(=O)C(C)(C)CO)[C@@H]3[C@@H](C)[C@@H](O)[C@]4(O)OC[C@@]31[C@@H]42
Reply | 95

Ask | Look up GI50: COC(=O)[C@@]12OC[C@]34[C@H]([C@@H](O)C1O)[C@@]1(C)CC(=O)C(OC(=O)/C=C(/c5ccccc5)C(F)(F)F)=C(C)[C@@H]1C[C@H]3OC(=O)[C@H](O)[C@H]42 (stereo partly drawn)
Reply | 7400

###

# GI50 per record follows
Test description: Growth inhibition of human NCI60 cells
Type: functional
Run parameters: Homo sapiens, NCI60
The reply should contain only the number, in µM.

INSERT INTO results (compound, readout_number) VALUES
  ('C=C1[C@@H](O)[C@]2(O)OC[C@@]34[C@H]1[C@@H](OC(=O)C/C=C/CCCCCCCC)C(=O)O[C@@H]3C[C@H]1C(C)=CC(=O)[C@@H](O)[C@]1(C)[C@@H]24', 0.024),
  ('CC1=C[C@H](O)[C@@H](O)[C@]2(C)[C@H]3[C@@]4(O)OC[C@]35[C@H]([C@@H](C)[C@H]4O)[C@@H](O)C(=O)O[C@@H]5C[C@@H]12', 41),
  ('CC(C)=CC(=O)O[C@H]1C(=O)O[C@@H]2C[C@H]3C(C)=CC(=O)[C@@H](O)[C@]3(C)[C@H]3[C@@]4(O)OC[C@]32[C@@H]1[C@@H](C)[C@H]4O', 0.021),
  ('CC1=CC(=O)[C@H](O)[C@@]2(C)[C@@H]1C[C@H]1OC(=O)C(OC(=O)CC3=CCCC3)[C@H]3[C@@H](C)[C@@H](O)[C@]4(O)OC[C@]13[C@@H]42 (some centres undefined)', 40),
  ('COC(=O)[C@@]12OC[C@]34[C@H]([C@@H](O)C1O)[C@@]1(C)CC(=O)C(O)=C(C)[C@@H]1C[C@H]3OC(=O)[C@H](OC(=O)/C=C(/c1ccccc1)C(F)(F)F)[C@H]42 (some centres undefined)', 3.6);

Ask | Look up GI50: CC(C)=CC(=O)O[C@@H]1[C@H]2C(C)=CC(=O)[C@@H](O)[C@]2(C)[C@H]2[C@@]3(O)OC[C@@]24[C@@H]1OC(=O)C[C@H]4[C@@H](C)[C@H]3O
Reply | 0.019

Ask | Look up GI50: CC1=CC(=O)[C@@H](O)[C@]2(C)[C@H]3[C@]4(O)OC[C@]35[C@H]([C@@H](C)[C@H]4O)[C@@H](O)C(=O)O[C@@H]5C[C@@H]12
Reply | 0.29

Ask | Look up GI50: CCC(C)C(=O)O[C@H]1C(=O)O[C@@H]2C[C@H]3C(C)=CC(=O)[C@@H](O)[C@]3(C)[C@H]3[C@]4(O)OC[C@]32[C@@H]1[C@@H](C)[C@H]4O (some centres undefined)
Reply | 31

Ask | Look up GI50: COC(=O)[C@@]12OC[C@]34[C@H]([C@@H](O)C1O)[C@@]1(C)CC(=O)C(OC(=O)CC(C)C(F)(F)F)=C(C)[C@@H]1C[C@H]3OC(=O)[C@H](O)[C@H]42 (some centres undefined)
Reply | 2.9
